- settings: 338.15 K; 101.33 kPa; Liquid; Vibrating tube method
Rule: condition met for mass density not less than 1000 kg/m3, condition not met for anything less.

{"columns": ["compound", "class_label"],
 "data": [
  ["CCCCCCCCCCCCCC[P+](CCCCCC)(CCCCCC)CCCCCC.O=S(=O)([N-]S(=O)(=O)C(F)(F)F)C(F)(F)F", "condition met"],
  ["CCCCCCCCCCCCCC[P+](CCCCCC)(CCCCCC)CCCCCC.N#Cc1nc[n-]c1C#N [trihexyl(tetradecyl)phosphonium 4,5-dicyanoimidazolide]", "condition not met"],
  ["CCCCCCn1cc[n+](C)c1.O=[N+]([O-])c1cn[n-]c1 [1-hexyl-3-methylimidazolium 4-nitropyrazolide]", "condition met"],
  ["CCCCCCCCCCCCCC[P+](CCCCCC)(CCCCCC)CCCCCC.O=[N+]([O-])c1cn[n-]c1 [trihexyl(tetradecyl)phosphonium 4-nitropyrazolide]", "condition not met"],
  ["CCCCCC[n+]1ccn(C)c1.O=S(=O)([N-]S(=O)(=O)C(F)(F)F)C(F)(F)F", "condition met"],
  ["CCCC[P+](CC)(CC)CC.Cc1ncc([N+](=O)[O-])[n-]1 [butyltriethylphosphonium 2-methyl-5-nitroimidazolide]", "condition met"],
  ["CC(=O)[O-].CCCCCCCCCCCCCC[P+](CCCCCC)(CCCCCC)CCCCCC [trihexyl(tetradecyl)phosphonium acetate]", "condition not met"],
  ["CCCCCCn1cc[n+](C)c1C.O=[N+]([O-])c1cn[n-]c1 [1-hexyl-2,3-dimethylimidazolium 4-nitropyrazolide]", "condition met"],
  ["CCCCCCCCCCCCCC[P+](CCCCCC)(CCCCCC)CCCCCC.Cc1ncc([N+](=O)[O-])[n-]1 [trihexyl(tetradecyl)phosphonium 2-methyl-5-nitroimidazolide]", "condition not met"],
  ["CCCCCCCCCCCCCC[P+](CCCCCC)(CCCCCC)CCCCCC.Clc1nc[n-]c1Cl [trihexyl(tetradecyl)phosphonium 4,5-dichloroimidazolide]", "condition not met"],
  ["CCCCCCCC[P+](CC)(CC)CC.O=S(=O)([N-]S(=O)(=O)C(F)(F)F)C(F)(F)F [triethyloctylphosphonium bis(trifluoromethylsulfonyl)imide]", "condition met"]
]}

###

- settings: 323.15 K; 101.33 kPa; Liquid; Vibrating tube method

{"columns": ["molecule", "mass density / kg/m3"],
 "data": [
  ["CC(=O)[O-].CCCCCCCCCCCCCC[P+](CCCCCC)(CCCCCC)CCCCCC [trihexyl(tetradecyl)phosphonium acetate]", 870.7],
  ["CC(=O)[O-].CCCCCCn1cc[n+](C)c1 [3-hexyl-1-methylimidazolium acetate]", 1001.5],
  ["CCCCCCCCCCCCCC[P+](CCCCCC)(CCCCCC)CCCCCC.Cc1ncc([N+](=O)[O-])[n-]1 [trihexyl(tetradecyl)phosphonium 2-methyl-5-nitroimidazolide]", 924],
  ["CCCCCCCCCCCCCC[P+](CCCCCC)(CCCCCC)CCCCCC.Clc1nc[n-]c1Cl [trihexyl(tetradecyl)phosphonium 4,5-dichloroimidazolide]", 949.1],
  ["CCCCCCn1cc[n+](C)c1C.O=[N+]([O-])c1cn[n-]c1 [1-hexyl-2,3-dimethylimidazolium 4-nitropyrazolide]", 1102.8],
  ["CCCCCCn1cc[n+](C)c1.O=[N+]([O-])c1cn[n-]c1 [1-hexyl-3-methylimidazolium 4-nitropyrazolide]", 1107]
]}
